assay: Inhibition of Mycobacterium tuberculosis ADH assessed as decrease in conversion of L-alanine to pyruvate by measuring NADH by spectrophotometry; set-up: species or system Mycobacterium tuberculosis H37Rv
pIC50: −log10 of the molar value.
Parameter: pIC50. Scope: all listed entries.
QUANTITY_KIND: pIC50

Fc1ccc(Nc2nc(C3CC3)nc3sc4c(c23)CCCC4)cc1 5.05
c1ccc(CCNc2nc(C3CC3)nc3sc4c(c23)CCCC4)cc1 4.77
Cc1ccc(C)c(Nc2nc(C3CC3)nc3sc4c(c23)CCCC4)c1 5.68
CCc1nc(Nc2ccc(Cl)cc2)c2c3c(sc2n1)CCCC3 5.31

Data credit: ChEMBL document CHEMBL3853352
